Target: UniProtKB P43220
Sequence (P43220 24-463): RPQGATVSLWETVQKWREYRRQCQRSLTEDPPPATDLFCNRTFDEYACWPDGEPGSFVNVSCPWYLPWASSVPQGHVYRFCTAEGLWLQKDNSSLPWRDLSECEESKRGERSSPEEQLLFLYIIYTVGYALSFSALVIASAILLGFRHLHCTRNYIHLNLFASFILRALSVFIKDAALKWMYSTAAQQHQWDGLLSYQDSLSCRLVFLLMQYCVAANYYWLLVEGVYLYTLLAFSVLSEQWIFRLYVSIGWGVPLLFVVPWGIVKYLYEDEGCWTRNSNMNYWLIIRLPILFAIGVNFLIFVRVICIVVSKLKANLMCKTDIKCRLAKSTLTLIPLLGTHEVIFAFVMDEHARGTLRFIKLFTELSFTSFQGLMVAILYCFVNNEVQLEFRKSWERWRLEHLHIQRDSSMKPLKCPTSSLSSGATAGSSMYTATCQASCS
Test: cAMP assay: intracellular cAMP detected by TR-FRET
Settings: cells incubated with compound at 37° C. for 30 min, maximum concentration 12 μM
Measure name: EC50

>>> reported("Cc1cc(-n2nc3c(c2-n2ccn(-c4ccc5c(cnn5C)c4F)c2=O)[C@H](C)N(C(=O)c2sc4cc(C5CCOC(C)(C)C5)cnc4c2C2(c4noc(=O)[nH]4)C[C@@H]2C)CC3)cc(C)c1F (some centres unmarked)")
"44 pM"
>>> reported("Cc1cc(-n2nc3c(c2N2C(=O)N(c4ccc5c(cnn5C)c4F)C4CC42)[C@H](C)N(C(=O)c2cc4cc([C@H]5CCOC(C)(C)C5)ccc4n2[C@@]2(c4noc(=O)[nH]4)C[C@@H]2C)CC3)cc(C)c1F (some centres unmarked)")
"87 pM"
>>> reported("Cc1cc(-n2nc3c(c2-n2ccn(-c4ccc5c(cnn5C)c4F)c2=O)[C@H](C)N(C(=O)c2sc4nc(C5CCOC(C)(C)C5)ccc4c2C2(c4noc(=O)[nH]4)C[C@@H]2C)CC3)cc(C)c1F (some centres unmarked)")
"93 pM"
>>> reported("Cc1cc(-n2nc3c(c2-n2ccn(-c4ccc5c(cnn5C)c4F)c2=O)[C@H](C)N(C(=O)c2oc4cc(C5CCOC(C)(C)C5)ncc4c2C2(c4noc(=O)[nH]4)C[C@@H]2C)CC3)cc(C)c1F (some centres unmarked)")
"182 pM"
>>> reported("Cc1cc(-n2nc3c(c2-n2ccn(-c4ccc5c(cnn5C)c4F)c2=O)[C@H](C)N(C(=O)c2sc4cc(C5CCOC(C)(C)C5)ccc4c2C2(c4noc(=O)[nH]4)C[C@@H]2C)CC3)cc(C)c1F (some centres unmarked)")
"406 pM"
